| Compound | melting point |
| --- | --- |
| O=C1COc2cc([N+](=O)[O-])ccc2N1 | 225 to 227 °C |
| Nc1nc2cc(-c3ccccc3)cc(Cl)c2o1 | 237 to 239 °C |
| O=C(O)CC(NC(=O)OCc1ccccc1)c1ccccc1 (stereo unspecified) | 124 to 126 °C |
| CCOC(=O)c1cc(C)sc1NC(=O)CCl | 104 to 106 °C |
| CC(=O)N(CCC#N)C(C)C | 59 to 61 °C |
| Nc1ccc(N2CCc3ccccc32)cc1C(=O)O | 189 to 191 °C |
| O=[N+]([O-])c1ccccc1CSc1ncccn1 | 60 to 62 °C |
| O=C1CCc2c(O)cccc21 | 242 to 244 °C |
| N#Cc1cccc(-n2ccnc2)c1 | 161 to 163 °C |
| CC(=O)c1cc(C#N)c(S)nc1C | 127 to 129 °C |
| CN1CCN(c2ccc(N)nc2)CC1 | 119 to 121 °C |
| COc1cc(CC#N)ccc1[N+](=O)[O-] | 84 to 86 °C |
| O=C(O)c1cc(NCc2ccccc2)ccn1 | 274 to 276 °C |
| COc1ccc(OC)c(C(F)(F)C(=O)O)c1 | 81 to 83 °C |
| Cc1ccc(N2CCOC2=O)cc1N | 124 to 126 °C |
| COc1ccc(C(=O)NN)c(OC)c1 | 112 to 114 °C |
| O=C(O)c1ccccc1C(=O)c1ccc(Cl)c(Cl)c1 | 187 to 189 °C |
| Nc1ccc(N2C(=O)CCC2=O)cc1 | 239 to 241 °C |
| O=C(O)CNC(=O)c1ccc(Cl)c(Cl)c1 | 136 to 138 °C |
| CC(=O)c1cccc(N2C(=O)C=CC2=O)c1 | 104 to 106 °C |
| Nc1cccc(NS(=O)(=O)c2ccc(Cl)cc2)c1 | 112 to 114 °C |
| O=C1CCCCC1n1ccc([N+](=O)[O-])n1 (stereo unspecified) | 128 to 130 °C |
| COC(=O)c1cc(Cl)ccn1 | 55 to 57 °C |
| Cc1nc(C2COCCN2C(=O)OC(C)(C)C)no1 (stereo unspecified) | 96 to 98 °C |
| Cc1ccccc1SC(C(=O)O)c1ccccc1 (stereo unspecified) | 100 to 102 °C |
| O=C(O)CNC(=O)c1cccc(Cl)c1 | 98 to 100 °C |
| O=C(O)c1cccc(-c2noc(C3CC3)n2)c1 | 158 to 160 °C |
| CS(=O)(=O)c1cccc(S(=O)(=O)Cl)c1 | 87 to 89 °C |
| O=C(CCl)Nc1cc(-n2nnnc2C2CC2)ccc1F | 119 to 121 °C |
| O=C(CCl)NCc1ccc(C(=O)O)cc1 | 193 to 195 °C |
| O=C1C=CC(=O)N1c1ccc(F)c(Cl)c1 | 159 to 161 °C |
| O=C(O)CNS(=O)(=O)c1ccc2c(c1)nnn2O | 229 to 231 °C |
| O=C(O)c1csc(-c2cc3ccccc3o2)n1 | 242 to 244 °C |
| NNC(=O)c1cccc2cccnc12 | 88 to 90 °C |
| Brc1cnc(NCc2ccncc2)nc1 | 122 to 124 °C |
| Nc1ccc(-c2nc(C3CC3)no2)cc1Cl | 97 to 99 °C |
| CCOC(=O)c1c(C2CC2)csc1N | 70 to 72 °C |
| COCC(=O)c1ccc(F)c(F)c1 | 39 to 41 °C |
| COc1c(Cl)cc(Cl)cc1C=O | 85 to 87 °C |
| O=c1oc2ccc(O)cc2s1 | 171 to 173 °C |
| Cc1ccc(-c2noc(N)n2)cc1 | 214 to 216 °C |
| NC1=NC(=O)c2ccccc21 | 208 to 210 °C |
| CCOC(=O)c1cnn2c1nc(Cl)c1ccccc12 | 129 to 131 °C |
| CCC(Br)C(=O)c1ccc(OC)cc1 (stereo unspecified) | 49 to 51 °C |
| N#Cc1cc(N)ccc1Cl | 127 to 129 °C |
| COCc1nc(Cl)c2c(-c3ccccc3)csc2n1 | 62 to 64 °C |
| COc1ccc(N)cc1OCC(N)=O | 161 to 163 °C |
| Nc1cc(-c2cccs2)nn1-c1ccccc1 | 121 to 123 °C |
| O=c1[nH]cnc2c1nnn2-c1ccccc1 | 279 to 281 °C |
| Cc1ccc(S(=O)(=O)OI(O)c2ccccc2)cc1 | 134 to 136 °C |
| CN(C(=O)CCl)C1(C#N)CCCCC1 | 86 to 90 °C |
